- target-under-test: PDE1C (Homo sapiens, UniProt Q14123)
- Construct: cell lysate containing full length PDE7A, PDE7B and PDE1C enzyme
- Sequence (Q14123 whole entry): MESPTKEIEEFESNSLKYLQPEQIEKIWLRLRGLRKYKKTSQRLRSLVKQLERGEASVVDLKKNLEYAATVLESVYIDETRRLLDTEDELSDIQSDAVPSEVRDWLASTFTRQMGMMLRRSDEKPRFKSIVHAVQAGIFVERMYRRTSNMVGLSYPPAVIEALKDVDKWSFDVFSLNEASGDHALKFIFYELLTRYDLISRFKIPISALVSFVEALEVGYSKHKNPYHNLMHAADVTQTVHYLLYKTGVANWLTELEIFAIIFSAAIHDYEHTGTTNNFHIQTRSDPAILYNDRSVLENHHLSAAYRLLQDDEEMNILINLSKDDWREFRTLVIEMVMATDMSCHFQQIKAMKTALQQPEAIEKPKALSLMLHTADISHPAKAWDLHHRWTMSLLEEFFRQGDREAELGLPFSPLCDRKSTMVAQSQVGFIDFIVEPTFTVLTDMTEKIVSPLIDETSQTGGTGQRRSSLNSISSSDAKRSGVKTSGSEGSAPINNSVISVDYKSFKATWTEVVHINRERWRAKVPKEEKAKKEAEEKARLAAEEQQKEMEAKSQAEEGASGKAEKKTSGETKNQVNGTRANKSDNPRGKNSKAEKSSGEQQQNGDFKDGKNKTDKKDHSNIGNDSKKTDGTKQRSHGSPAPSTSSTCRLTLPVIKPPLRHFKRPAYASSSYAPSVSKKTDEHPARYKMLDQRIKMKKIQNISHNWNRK
- method-description: PDE1C [3H]-cAMP scintillation proximity assay (SPA) enzyme inhibition
- reported-conditions: full length PDE1C in cell lysate; 75 nM cAMP; Ki from IC50 by Cheng-Prussof equation
Provide the reported Ki of each item.
Value expressed in nM; do not type the unit.

Query :: Quote Ki with test system PDE1C (Homo sapiens, UniProt Q14123) for O=C1Nc2c(Cl)ccc(Oc3ccc(F)cc3-c3nn[nH]n3)c2C2(CCCCC2)N1
Result :: 70

Query :: Quote Ki with test system PDE1C (Homo sapiens, UniProt Q14123) for O=C1Nc2c(Cl)ccc(Oc3c(F)cccc3-c3nn[nH]n3)c2C2(CCCC2)N1
Result :: 723

Query :: Quote Ki with test system PDE1C (Homo sapiens, UniProt Q14123) for O=C1Nc2c(Cl)ccc(Oc3c(F)cccc3-c3n[nH]c(=O)[nH]3)c2C2(CCCCC2)N1
Result :: 172

Query :: Quote Ki with test system PDE1C (Homo sapiens, UniProt Q14123) for O=C1Nc2c(Cl)ccc(Oc3c(F)cccc3-c3noc(=O)[nH]3)c2C2(CCCCC2)N1
Result :: 94

Query :: Quote Ki with test system PDE1C (Homo sapiens, UniProt Q14123) for O=C1Nc2c(Cl)ccc(Oc3c(F)cccc3NS(=O)(=O)C(F)(F)F)c2C2(CCCCC2)N1
Result :: 62

Query :: Quote Ki with test system PDE1C (Homo sapiens, UniProt Q14123) for O=C1Nc2c(Cl)ccc(Oc3c(Cl)cccc3C(=O)O)c2C2(CCCCC2)N1
Result :: 1810

Query :: Quote Ki with test system PDE1C (Homo sapiens, UniProt Q14123) for O=C(O)COc1ccccc1Oc1ccc(Cl)c2c1C1(CCCCC1)NC(=O)N2
Result :: 58
